Biological target: MOR (Homo sapiens)
Construct: expressed in transfected cells; host or cells: CHO (hMOR-CHO)
Sequence (P35372 whole entry): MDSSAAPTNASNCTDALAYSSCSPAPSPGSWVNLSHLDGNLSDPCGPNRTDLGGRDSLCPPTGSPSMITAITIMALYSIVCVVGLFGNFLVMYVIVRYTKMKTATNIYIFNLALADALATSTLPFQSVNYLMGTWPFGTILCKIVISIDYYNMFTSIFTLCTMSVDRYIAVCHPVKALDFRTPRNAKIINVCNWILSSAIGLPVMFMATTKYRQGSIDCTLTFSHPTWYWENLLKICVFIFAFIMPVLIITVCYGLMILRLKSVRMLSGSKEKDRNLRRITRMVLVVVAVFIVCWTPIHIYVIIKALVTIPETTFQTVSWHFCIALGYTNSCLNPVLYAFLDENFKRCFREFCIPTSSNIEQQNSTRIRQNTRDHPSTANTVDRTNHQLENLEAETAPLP
Test: [35S]GTP-γ-S binding assay, hMOR-CHO cells
Assay type: biochemical
Settings: normalized to stimulation by DAMGO; read-out: agonist activity MOR Emax
measurement-kind: Emax

[[record]]
compound = "COC12Cc3cc(-c4ccc(Cl)cc4)cnc3C3Oc4c(O)ccc5c4C31CCN(C)C2C5 (stereo not shown) [Compound 17e]"
test_result = "118%"

[[record]]
compound = "CN1CCC23c4c5ccc(O)c4OC2c2ncc(-c4ccc(Cl)cc4)cc2CC3(OCCCc2ccccc2)C1C5 (stereo not shown) [Compound 17h]"
test_result = "125%"

[[record]]
compound = "CN1CCC23c4c5ccc(O)c4OC2c2ncc(-c4ccc(Cl)cc4)cc2CC3(OC(=O)c2ccccc2)C1C5 (stereo not shown) [Compound 18d]"
test_result = "55%"

[[record]]
compound = "Oc1ccc2c3c1OC1c4ncc(-c5ccc(Cl)cc5)cc4CC4(OCCCc5ccccc5)C(C2)N(CC2CC2)CCC314 (stereo not shown) [Compound 17d]"
test_result = "72%"

[[record]]
compound = "CN1CCC23c4c5ccc(O)c4OC2c2ncc(-c4ccc(Cl)cc4)cc2CC3(OCC=Cc2ccccc2)C1C5 (stereo not shown) [Compound 17g]"
test_result = "130%"

[[record]]
compound = "CN1CCC23c4c5ccc(O)c4OC2c2ncc(-c4ccc(Cl)cc4)cc2CC3(OCc2ccccc2)C1C5 (stereo not shown) [Compound 17f]"
test_result = "119%"

[[record]]
compound = "CN1CCC23c4c5ccc(O)c4OC2c2ncc(-c4ccc(Cl)cc4)cc2CC3(OC(=O)CCc2ccccc2)C1C5 (stereo not shown) [Compound 18f]"
test_result = "> 100%"


====

Target: KOR (Homo sapiens)
Construct: expressed in transfected cells; host or cells: CHO (hKOR-CHO)
Sequence (P41145 whole entry): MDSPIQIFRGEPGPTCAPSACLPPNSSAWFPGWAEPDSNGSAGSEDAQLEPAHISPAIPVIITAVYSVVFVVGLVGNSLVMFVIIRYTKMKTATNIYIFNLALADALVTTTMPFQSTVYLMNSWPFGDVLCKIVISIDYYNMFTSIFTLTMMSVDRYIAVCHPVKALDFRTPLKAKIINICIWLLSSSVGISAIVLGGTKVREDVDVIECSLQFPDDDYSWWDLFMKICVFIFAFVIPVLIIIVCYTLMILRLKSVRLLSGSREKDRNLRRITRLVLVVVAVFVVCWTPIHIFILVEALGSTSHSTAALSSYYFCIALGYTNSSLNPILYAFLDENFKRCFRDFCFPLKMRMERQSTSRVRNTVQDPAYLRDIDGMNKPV
Experiment: biochemical
Format: binding
pKi: −log10 of the molar value.
// not fulfilled strictly below 8 in pKi; fulfilled otherwise

[[record]]
compound = "CN1CCC23c4c5ccc(O)c4OC2c2ncc(-c4ccc(Cl)cc4)cc2CC3(OC(=O)CCc2ccccc2)C1C5 (centres unmarked) [Compound 18f]"
class_assignment = "fulfilled"

[[record]]
compound = "Oc1ccc2c3c1OC1c4ncc(-c5ccc(Cl)cc5)cc4CC4(OCC=Cc5ccccc5)C(C2)N(CC2CC2)CCC314 (centres unmarked) [Compound 17c]"
class_assignment = "fulfilled"

[[record]]
compound = "Oc1ccc2c3c1OC1c4ncc(-c5ccc(Cl)cc5)cc4CC4(OCc5ccccc5)C(C2)N(CC2CC2)CCC314 (centres unmarked) [Compound 17b]"
class_assignment = "fulfilled"

[[record]]
compound = "O=C(OC12Cc3cc(-c4ccc(Cl)cc4)cnc3C3Oc4c(O)ccc5c4C31CCN(CC1CC1)C2C5)c1ccccc1 (centres unmarked) [Compound 18a]"
class_assignment = "not fulfilled"


====

In this section we review reported selectivity ratio MOR/DOR values for a set of compounds.
Target: MOR (Homo sapiens)
Construct: expressed in transfected cells; host or cells: CHO (hMOR-CHO)
Experiment: Opioid binding assay, displacement of [3H]DAMGO, hMOR-CHO cell membranes
Conditions: ratio of Ki values, CHO membranes
measurement-kind: selectivity ratio MOR/DOR

[[record]]
compound = "Oc1ccc2c3c1OC1c4ncc(-c5ccc(Cl)cc5)cc4CC4(OCc5ccccc5)C(C2)N(CC2CC2)CCC314 (stereo not shown) [Compound 17b]"
measurement_kind = "selectivity ratio MOR/DOR"
test_result = 4.4

[[record]]
compound = "Oc1ccc2c3c1OC1c4ncc(-c5ccc(Cl)cc5)cc4C=C4C(C2)N(CC2CC2)CCC431 (stereo not shown)"
measurement_kind = "selectivity ratio MOR/DOR"
test_result = 4.8

[[record]]
compound = "CN1CCC23c4c5ccc(O)c4OC2c2ncc(-c4ccc(Cl)cc4)cc2CC3(OCc2ccccc2)C1C5 (stereo not shown) [Compound 17f]"
measurement_kind = "selectivity ratio MOR/DOR"
test_result = 2.6

[[record]]
compound = "O=C(Cc1ccccc1)OC12Cc3cc(-c4ccc(Cl)cc4)cnc3C3Oc4c(O)ccc5c4C31CCN(CC1CC1)C2C5 (stereo not shown) [Compound 18b]"
measurement_kind = "selectivity ratio MOR/DOR"
test_result = 0.78

[[record]]
compound = "CN1CCC23c4c5ccc(O)c4OC2c2ncc(-c4ccc(Cl)cc4)cc2CC3(OCCCc2ccccc2)C1C5 (stereo not shown) [Compound 17h]"
measurement_kind = "selectivity ratio MOR/DOR"
test_result = 0.52

[[record]]
compound = "CN1CCC23c4c5ccc(O)c4OC2c2ncc(-c4ccc(Cl)cc4)cc2CC3(OCC=Cc2ccccc2)C1C5 (stereo not shown) [Compound 17g]"
measurement_kind = "selectivity ratio MOR/DOR"
test_result = 0.36

[[record]]
compound = "CN1CCC23c4c5ccc(O)c4OC2c2ncc(-c4ccc(Cl)cc4)cc2CC3(OC(=O)CCc2ccccc2)C1C5 (stereo not shown) [Compound 18f]"
measurement_kind = "selectivity ratio MOR/DOR"
test_result = 0.98

